# target_desc: Thyroid hormone receptor beta (Homo sapiens, UniProt P10828)
# Sequence (P10828 whole entry): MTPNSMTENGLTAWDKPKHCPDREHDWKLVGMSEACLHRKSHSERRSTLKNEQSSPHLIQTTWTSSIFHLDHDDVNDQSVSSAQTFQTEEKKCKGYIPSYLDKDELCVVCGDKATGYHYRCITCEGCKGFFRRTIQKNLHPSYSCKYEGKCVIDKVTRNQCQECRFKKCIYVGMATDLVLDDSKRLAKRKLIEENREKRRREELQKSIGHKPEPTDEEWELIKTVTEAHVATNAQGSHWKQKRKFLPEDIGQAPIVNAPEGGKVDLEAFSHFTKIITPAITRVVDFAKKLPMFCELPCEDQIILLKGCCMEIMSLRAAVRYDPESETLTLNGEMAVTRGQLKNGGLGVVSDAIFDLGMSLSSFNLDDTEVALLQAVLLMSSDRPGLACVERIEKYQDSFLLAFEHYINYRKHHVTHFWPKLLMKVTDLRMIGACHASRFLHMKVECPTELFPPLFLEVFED
# assay_method_text: Displacement of [125I]-L-3,5,3'-triiodothyronine from human TRbeta expressed in human Hela cell lysate measured after overnight incubation by competition binding assays
quantity_kind: Ki (nM)

Some molecules with known Ki results, for comparison:
Fill in: Ki of "Cc1cn(Cc2ccc(O)c(C(C)(C)C)c2)c2ccc(OCC(=O)O)cc12" is ___
0.3

# iterate: "Cc1cc2cc(OCC(=O)O)ccc2n1Cc1ccc(O)c(C(C)C)c1"
1.12

# iterate: "Cc1cn(Cc2ccc(O)c(C(C)C)c2)c2c(C)cc(OCC(=O)O)cc12"
0.18

A: Cc1cc(OCC(=O)O)cc2cc(C)n(Cc3ccc(O)c(C(C)C)c3)c12
B: Cc1cn(Cc2ccc(O)c(C3CCCC3)c2)c2ccc(OCC(=O)O)cc12
Pick one: A or B . Which one has the lower reported Ki? State your choice using its label.
A
(A: 0.14 nM, B: 0.64 nM)

Origin of the recorded values: ChEMBL document CHEMBL3396982
